Target: T1, amino acid residues 26-148 of human ANGPTL4 fused in-line to mouse IgG2a (hANGPTL4-mFc) (human)
T1 chain: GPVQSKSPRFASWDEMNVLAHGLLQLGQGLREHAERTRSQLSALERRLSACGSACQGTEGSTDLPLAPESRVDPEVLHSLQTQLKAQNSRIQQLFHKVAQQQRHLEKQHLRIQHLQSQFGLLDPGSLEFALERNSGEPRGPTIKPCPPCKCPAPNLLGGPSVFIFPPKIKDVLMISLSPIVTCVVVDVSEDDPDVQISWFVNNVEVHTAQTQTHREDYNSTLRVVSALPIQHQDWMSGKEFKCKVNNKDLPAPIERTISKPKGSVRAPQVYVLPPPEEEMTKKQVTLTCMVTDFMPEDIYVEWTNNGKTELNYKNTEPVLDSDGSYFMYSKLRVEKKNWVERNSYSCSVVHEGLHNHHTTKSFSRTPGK
Assay: cell-based or functional assay
// values below are reported % Inhibition of hANGPTL4 Activity (LPL lipase test), hANGPTL4-mFc (2 nM)
The response must be a number in % with no trailing unit.

H1H653P (antibody, V domains shown, Fully human antibody, H1H prefix (human IgG1)) VH: QVQLVESGGGVVQPGRSLRLSCVASGFTFSSYGMHWVRQAPGKGLEWMAVIWYDGSNKYFADSVKDRFTISRDNSKNTLYLQMNTLRPDDTAVYYCVKADAPLLIYGVDVWGQGTTVTVS VL: DIQMTQSPSSLSASVGDRVTITCRASQGIRNDLGWYQEKPGKAPKRLIYFASSLQSGVPSRFSGSGSGTEFTLTISSLQPEDFATYYCLQHNSYPYTFGQGTKLEIK : 55

The binder listed as H1H624P (antibody, V domains shown, Fully human antibody, H1H prefix (human IgG1)) VH: EVQLVESGGGLVQPGGSLRLSCAASEFIFSSYAMNWVRQAPGKGLEWVSVISGSGDSKYYADSVKGRFTISRDNSKNTLYLQMNSLRVEDTAVYYCAKDGKDRYGFYYNFYGMDVWGQGTTVTVS VL: DIQMTQSPSFLSASVGDRVTITCWASQGISSYLAWYQQKPGKAPKILIYAASTLQSGVPSRFSASGSGTEFTLTISSLQPEDFATYHCQQLNSYPFTFGPGTKVDIK shows % Inhibition of hANGPTL4 Activity (LPL lipase test), hANGPTL4-mFc (2 nM) equal to 62

// sample H1H268P (antibody, V domains shown, also called entire H1H268 mAb; Full mAb) VH: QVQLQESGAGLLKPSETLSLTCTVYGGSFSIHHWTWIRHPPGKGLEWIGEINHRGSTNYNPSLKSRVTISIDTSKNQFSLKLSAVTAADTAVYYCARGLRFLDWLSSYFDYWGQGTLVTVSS VL: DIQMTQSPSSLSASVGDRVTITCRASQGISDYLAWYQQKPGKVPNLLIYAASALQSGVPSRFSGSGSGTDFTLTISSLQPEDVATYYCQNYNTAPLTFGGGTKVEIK , its % Inhibition of hANGPTL4 Activity (LPL lipase test), hANGPTL4-mFc (2 nM) was 76

// sample H1H292P (antibody, V domains shown, Fully human antibody, H1H prefix (human IgG1)) VH: EVQLVESGGGLVQPGGSLRLSCVASGFTFSSYDMHWVRQLPGKGLEWVSAIGVAGDTYYPASVKGRFTISRENAKNSLYLQMNSLRAGDTAVYYCARGDSGNYYDGDYFDFWGQGTLVTVSS VL: DIQMTQSPSTLSASVGDRVTITCRASQSINRWLAWYQQKPGKAPKVLIYKASNLESGVPSRFSGSGSGTEFTLTISSLQPDDFATYYCQQYDSYFRTFGQGTKVEIK , its % Inhibition of hANGPTL4 Activity (LPL lipase test), hANGPTL4-mFc (2 nM) was 20

The value of % Inhibition of hANGPTL4 Activity (LPL lipase test), hANGPTL4-mFc (2 nM) measured for the binder H1H284P (antibody, V domains shown, also called entire H1H284 mAb; Full mAb) VH: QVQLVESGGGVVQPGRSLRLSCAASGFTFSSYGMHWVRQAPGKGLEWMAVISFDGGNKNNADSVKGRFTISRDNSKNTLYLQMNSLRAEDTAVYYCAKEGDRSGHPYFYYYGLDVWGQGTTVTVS VL: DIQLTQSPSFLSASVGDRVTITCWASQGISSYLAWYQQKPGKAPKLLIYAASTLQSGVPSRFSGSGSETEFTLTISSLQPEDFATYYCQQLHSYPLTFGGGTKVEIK turned out to be 82

The measured % Inhibition of hANGPTL4 Activity (LPL lipase test), hANGPTL4-mFc (2 nM) associated with H1H285P (antibody, V domains shown, Fully human antibody, H1H prefix (human IgG1)) VH: EVQLVESGGGLVQPGGSLRLSCAASGFTFSRYDMHWVRQVTGKGLEWVSGIGTAGDTYYPGSVKGRFTISRENDKNSLYLQMNSLRVGDTAVYYCARGDSKNYYVGDYFDYWGQGTLVTVSS VL: DIQMTQSPSTLSASVGDRVTFTCRASHSIGNWLAWYQQKPGKAPKVLIYEASSLEDGVPSRFSGSGSGTEFTLTISSLQPDDFATYYCQQYDTYFRTFGQGTKVEIK reads 28

Note to self: % Inhibition of hANGPTL4 Activity (LPL lipase test), hANGPTL4-mFc (2 nM) recorded for H1H236N2 (antibody, V domains shown) VH: EVQLVESGGGLVQPGRSLRLSCAASGFTFDDYAMHWVRQAPGKGLEWVSGISWNSGSIVYADSVKGRFTISRDNAKNSLYLQMNSLISEDTALYYCAKDESSSSGNWFDPWGQGTLVTVSS VL: EVVMTQSPATLSVSPGERATLSCRASQSVSSNLAWYQQKPGQAPRLLIYGASTRATGIPARFSGSGSGTEFTLTISSLQSEDFAVYYCQEYNNWITFGQGTRLEIK was 13

Entry H1H257P (antibody, V domains shown, Fully human antibody; the H1H prefix stands for human IgG1 (said outright only for H1H268P and H1H284P)) VH: EVQLVESGGGLVQPGGSLRLSCAASGFTFSSYDMHWVRQVAGKGLEWVSAIGTAGDTYYPVSVKGRFTISRENAKNSLYLHMNSLRAGDTAVYFCARGDSRNYYVGDYFDYWGQGTLVTVSS VL: DIQMTQSPSTLSASVGDRVTITCRASQSISRWLAWYQQKPGKAPKVLIYQASNLESGVPSRFSGSGSGTEFTLTISSLQPDDFATYYCQQYDSYSRAFGRGTKVEIK , % Inhibition of hANGPTL4 Activity (LPL lipase test), hANGPTL4-mFc (2 nM) reported as 16
